system: Rhizoctonia solani (Rs); experiment: Growth inhibition assay of fungal pathogens, Rs; assay type: cell-based; conditions: 48 h, mycelial plugs, growth inhibition at 48 hours vs 2% DMSO control, read-out: Concentration at 90% Inhibition Rs

| molecule | resultUnits | IC90 |
| --- | --- | --- |
| CCNC(=O)[C@@H](C)n1c(=O)c2c(C)c(-n3nccn3)sc2n(C[C@H](OCCC#N)c2cc(F)ccc2OC)c1=O [Compound I-252] | µg/mL | 0.08 |
| COc1ccc(F)cc1[C@H](Cn1c(=O)n(C(C)(C)C(=O)N2CC=CC2)c(=O)c2c(C)c(-n3nccn3)sc21)OC[C@@H](C)O [Compound I-63] | µg/mL | 0.4 |
| COCCO[C@@H](Cn1c(=O)n(C(C)C(=O)N2CCCC2)c(=O)c2c(C)c(-n3nccn3)sc21)c1cc(F)ccc1OC (stereo partly drawn) [Compound I-64] | µg/mL | 2 |

====

Recorded IC50 for the following compounds
target: human (hACC2) (Homo sapiens, UniProt O00763); assay: In vitro ACC inhibition assay (ADP-Glo), hACC2; type: biochemical; details: Table 2b, additional results, 5 nM ACC2, 20 μM ATP, 20 μM acetyl-CoA
Sequence (O00763 whole entry): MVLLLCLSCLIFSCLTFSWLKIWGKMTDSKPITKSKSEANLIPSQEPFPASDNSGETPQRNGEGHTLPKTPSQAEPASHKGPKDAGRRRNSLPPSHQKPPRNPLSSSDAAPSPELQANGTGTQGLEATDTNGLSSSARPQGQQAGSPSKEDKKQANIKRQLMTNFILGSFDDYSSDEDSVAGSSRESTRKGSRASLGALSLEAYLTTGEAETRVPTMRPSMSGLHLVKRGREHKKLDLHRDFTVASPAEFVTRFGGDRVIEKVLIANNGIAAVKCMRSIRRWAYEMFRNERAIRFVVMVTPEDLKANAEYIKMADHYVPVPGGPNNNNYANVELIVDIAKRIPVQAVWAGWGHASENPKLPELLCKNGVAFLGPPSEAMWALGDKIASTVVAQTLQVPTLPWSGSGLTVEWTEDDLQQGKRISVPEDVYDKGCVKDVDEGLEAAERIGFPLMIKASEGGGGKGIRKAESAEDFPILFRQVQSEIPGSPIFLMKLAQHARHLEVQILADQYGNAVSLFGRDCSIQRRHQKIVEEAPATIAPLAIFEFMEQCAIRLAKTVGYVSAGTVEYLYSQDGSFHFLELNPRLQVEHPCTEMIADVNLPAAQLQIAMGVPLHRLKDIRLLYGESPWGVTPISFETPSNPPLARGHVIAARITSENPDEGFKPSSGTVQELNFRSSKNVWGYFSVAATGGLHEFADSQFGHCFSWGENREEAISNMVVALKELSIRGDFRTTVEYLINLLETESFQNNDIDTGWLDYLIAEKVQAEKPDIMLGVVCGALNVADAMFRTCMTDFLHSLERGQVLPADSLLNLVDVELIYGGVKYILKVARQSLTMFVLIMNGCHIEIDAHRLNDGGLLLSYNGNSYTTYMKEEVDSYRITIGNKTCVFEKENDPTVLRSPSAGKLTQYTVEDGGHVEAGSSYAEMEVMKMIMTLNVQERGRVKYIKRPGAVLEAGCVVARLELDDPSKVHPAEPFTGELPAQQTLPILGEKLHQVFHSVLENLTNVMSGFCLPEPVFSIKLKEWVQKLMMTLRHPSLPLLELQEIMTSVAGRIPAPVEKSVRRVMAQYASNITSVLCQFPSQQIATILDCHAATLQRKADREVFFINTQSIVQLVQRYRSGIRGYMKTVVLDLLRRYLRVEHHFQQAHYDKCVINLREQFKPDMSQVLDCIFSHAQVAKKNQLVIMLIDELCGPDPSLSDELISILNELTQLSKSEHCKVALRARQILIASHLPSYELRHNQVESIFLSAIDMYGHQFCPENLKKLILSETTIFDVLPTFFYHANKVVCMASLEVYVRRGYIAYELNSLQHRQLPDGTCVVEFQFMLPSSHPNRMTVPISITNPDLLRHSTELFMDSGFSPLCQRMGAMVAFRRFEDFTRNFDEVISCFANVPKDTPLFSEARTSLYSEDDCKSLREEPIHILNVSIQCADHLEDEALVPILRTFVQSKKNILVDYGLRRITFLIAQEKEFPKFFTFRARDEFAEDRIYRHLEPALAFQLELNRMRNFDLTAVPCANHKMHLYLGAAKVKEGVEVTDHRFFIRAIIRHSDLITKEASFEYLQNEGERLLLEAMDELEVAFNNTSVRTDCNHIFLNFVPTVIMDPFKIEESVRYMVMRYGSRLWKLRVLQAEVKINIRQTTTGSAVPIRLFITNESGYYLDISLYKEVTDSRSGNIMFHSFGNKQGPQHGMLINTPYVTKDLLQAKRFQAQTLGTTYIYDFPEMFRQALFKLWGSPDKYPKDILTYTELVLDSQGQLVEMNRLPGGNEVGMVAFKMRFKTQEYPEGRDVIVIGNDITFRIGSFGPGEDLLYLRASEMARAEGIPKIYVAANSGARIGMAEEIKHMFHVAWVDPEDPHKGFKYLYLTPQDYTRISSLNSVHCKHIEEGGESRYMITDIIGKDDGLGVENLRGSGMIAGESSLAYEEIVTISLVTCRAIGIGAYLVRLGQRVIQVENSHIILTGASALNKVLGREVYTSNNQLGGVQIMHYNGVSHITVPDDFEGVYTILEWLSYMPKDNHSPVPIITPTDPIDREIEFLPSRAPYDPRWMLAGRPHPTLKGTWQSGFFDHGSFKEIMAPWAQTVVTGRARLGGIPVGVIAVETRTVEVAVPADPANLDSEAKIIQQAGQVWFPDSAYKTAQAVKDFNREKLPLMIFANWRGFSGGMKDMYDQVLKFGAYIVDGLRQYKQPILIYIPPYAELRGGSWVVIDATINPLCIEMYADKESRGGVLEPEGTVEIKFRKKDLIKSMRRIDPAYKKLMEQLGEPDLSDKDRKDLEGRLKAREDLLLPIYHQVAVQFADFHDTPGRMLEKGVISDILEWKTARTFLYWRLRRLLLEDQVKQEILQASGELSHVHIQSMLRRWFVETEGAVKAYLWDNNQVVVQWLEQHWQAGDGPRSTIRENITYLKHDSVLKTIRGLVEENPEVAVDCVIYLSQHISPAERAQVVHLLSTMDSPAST

| compound | IC50 |
| --- | --- |
| COCCO[C@@H](Cn1c(=O)n(C(C)(C)C(=O)OC(C)C)c(=O)c2c(C)c(-n3nccn3)sc21)c1cc(F)ccc1OC | 10 to 40 nM |
| Cc1c(-n2nccn2)sc2c1c(=O)n(C(C)(C)C(=O)NC(C)C)c(=O)n2CCc1cc(F)ccc1OC1CCOCC1 | 10 to 40 nM |
| COc1ccc(F)cc1[C@H](Cn1c(=O)n(C(C)(C)C(=O)O)c(=O)c2c(C)c(-n3nccn3)sc21)O[C@H]1CC[C@H](C#N)CC1 | 5 to 10 nM |
| COc1ccc(F)cc1[C@H](Cn1c(=O)n([C@H](C)C(=O)N(C)C(C)C)c(=O)c2c(C)c(-n3nccn3)sc21)OC1CCC(=O)CC1 | 5 to 10 nM |
| CCc1ccc(F)cc1[C@H](Cn1c(=O)n(C(C)(C)C(=O)NC2CCC2)c(=O)c2c(C)c(-n3nccn3)sc21)OC1CCOCC1 | 5 to 10 nM |
| COc1ccc(F)cc1[C@H](Cn1c(=O)n(C(C)(C)C(=O)NC2CCC2)c(=O)c2c(C)c(-n3nccn3)sc21)OCCC(C)=O | 1 to 5 nM |
| Cc1c(-n2nccn2)sc2c1c(=O)n(C(C)(C)C(=O)NC(C)C)c(=O)n2CCc1cc(F)ccc1CCCC#N | 10 to 40 nM |
| COc1ccccc1[C@H](Cn1c(=O)n(C(C)(C)C(=O)N2CC=CC2)c(=O)c2c(C)c(-n3nccn3)sc21)OC1CCOCC1 | 5 to 10 nM |
| COc1ccccc1[C@H](Cn1c(=O)n(C(C)(C)C(=O)NC(C)C)c(=O)c2c(C)c(-n3nccn3)sc21)OCCC#N | 5 to 10 nM |
| COc1ccc(F)cc1[C@H](Cn1c(=O)n(CC(=O)NC(C)C)c(=O)c2c(C)c(-n3nccn3)sc21)OC(C)C | 1 to 5 nM |
| COc1ccc(F)cc1[C@@H](CCCO)Cn1c(=O)n(C(C)(C)C(=O)NC(C)C)c(=O)c2c(C)c(-n3nccn3)sc21 | > 40 nM |
| COc1ccc(F)cc1[C@H](Cn1c(=O)n(C(C)(C)C(N)=O)c(=O)c2c(C)c(-n3nccn3)sc21)OC1CCOCC1 | 5 to 10 nM |
| CCc1ccc(F)cc1[C@@H](Cn1c(=O)n(C(C)(C)C(=O)NC(C)C)c(=O)c2c(C)c(-n3nccn3)sc21)OCC(C)(C)O (stereo in doubt) | > 40 nM |
| CCc1ccc(F)cc1[C@H](Cn1c(=O)n(C(C)(C)C(=O)NC(C)C)c(=O)c2c(C)c(-n3nccn3)sc21)OC[C@@H](C)C#N | > 40 nM |
| COc1ccc(F)cc1[C@H](Cn1c(=O)n(C(C)(C)C(=O)O)c(=O)c2c(C)c(-n3nccn3)sc21)OCC(C)(C)C#N | 1 to 5 nM |
| COCCCO[C@@H](Cn1c(=O)n([C@H](C)C(=O)NC(C)C)c(=O)c2c(C)c(-n3nccn3)sc21)c1cc(F)ccc1OC | 5 to 10 nM |
| COc1ccccc1[C@H](Cn1c(=O)n(C(C)(C)C(=O)NCC(C)C)c(=O)c2c(C)c(-n3nccn3)sc21)OC1CCOCC1 | 5 to 10 nM |
| Cc1c(-n2nccn2)sc2c1c(=O)n(C(C)(C)C(=O)NC(C)C)c(=O)n2C[C@H](OCC(C)(C)O)c1cc(F)ccc1O | 10 to 40 nM |
| COc1ccc(F)cc1[C@H](Cn1c(=O)n(C(C)(C)C(=O)NC(C)C)c(=O)c2c(C)c(-n3nccn3)sc21)OC[C@H](C)O | 10 to 40 nM |
| COc1ccc(F)cc1[C@H](Cn1c(=O)n(C(C)(C)C(=O)NC(C)C)c(=O)c2c(C)c(-n3nccn3)sc21)OCCC(N)=O | 10 to 40 nM |
| COc1ccc(F)cc1[C@H](Cn1c(=O)n(C(C)(C)C(=O)N2CCCC2)c(=O)c2c(C)c(-n3nccn3)sc21)OC[C@@H](C)O | 5 to 10 nM |
| COc1ccc(F)cc1[C@@H](Cn1c(=O)n(C(C)(C)C(=O)NC(C)C)c(=O)c2c(C)c(-n3nccn3)sc21)OC(=O)C(C)(C)O | 10 to 40 nM |
| COc1ccc(F)cc1CCn1c(=O)n(C(C)(C)C(=O)NC(C)C)c(=O)c2c(C)c(-n3nccn3)sc21 [Compound I-266] | 5 to 10 nM |
| COCCO[C@@H](Cn1c(=O)n(C(C)(C)C(=O)NC(C)C)c(=O)c2c(C)c(-n3nccn3)sc21)c1ccccc1OC | 5 to 10 nM |
| COc1ccc(F)cc1[C@H](Cn1c(=O)n(C(C)C(=O)NC(C)C)c(=O)c2c(C)c(-n3nccn3)sc21)OCCO (stereo partly shown) | 5 to 10 nM |
